system: HeLa; assay: Cytotoxicity against human HeLa cells assessed as reduction in cell viability after 24 hrs by MTT assay; format: functional, cell-based
We begin with a simple list: items and their reported IC50.
Please respond with the number in µM and leave the unit unwritten.

Reference set (3 entries):
molecular_string=Cc1sc2cc1C1=C(CCC1)c1cc(sc1C)C(=O)[C@H]1CCCN1C(=O)[C@H](C(C)C)NC(=O)[C@H](CCCN)NC(=O)[C@H]([C@H](O)C(C)C)NC(=O)[C@@H]1CCCN1C(=O)[C@@H](Cc1ccccc1)NC(=O)[C@H](C(C)C)NC(=O)[C@H](CCCN)NC(=O)[C@H](C(C)C)NC2=O assay_endpoint=IC50 reported_value=9
molecular_string=CC(C)C[C@@H]1NC(=O)[C@H](CCCCN)NC(=O)[C@H](C(C)C)NC(=O)C2=CC3=C4CCCC4=C4C=C(S[C@]4(C)[C@@]3(C)S2)C(=O)[C@H]2CCCN2C(=O)[C@H](CC(C)C)NC(=O)[C@H](CCCCN)NC(=O)[C@H](C(C)C)NC(=O)[C@H](CCCCN)NC(=O)[C@H](CC(C)C)NC(=O)[C@H](CCCCN)N(C)C(=O)[C@@H](Cc2ccccc2)NC(=O)[C@H](C(C)C)NC(=O)[C@H](CCCCN)NC1=O assay_endpoint=IC50 reported_value=18
molecular_string=Cc1sc2cc1C1=C(CCC1)c1cc(sc1C)C(=O)[C@H]1CCCN1C(=O)[C@H](CCCCN)NC(=O)[C@H](CC(C)C)NC(=O)[C@H](CCCCN)NC(=O)[C@H](C(C)C)NC(=O)[C@@H]1CCCN1C(=O)[C@@H](Cc1ccccc1)NC(=O)[C@H](CC(C)C)NC(=O)[C@H](CCCCN)NC(=O)[C@H](C(C)C)NC(=O)[C@H](CCCCN)NC2=O assay_endpoint=IC50 reported_value=41

Prompt line: Which IC50 is reported for this compound? Cc1sc2cc1C1=C(CCC1)c1cc(sc1C)C(=O)[C@H]1CCCN1C(=O)[C@H](C(C)C)NC(=O)[C@H](CCCN)NC(=O)[C@H](C(C)C)NC(=O)[C@@H]1CCCN1C(=O)[C@@H](Cc1ccccc1)NC(=O)[C@H](C(C)C)NC(=O)[C@H](CCCN)NC(=O)[C@H](CCNC(=O)C(C)C)NC2=O
Response line: 36

Prompt line: Which IC50 is reported for this compound? CC[C@H](C)[C@@H]1NC(=O)C2=CC3=C4CCCC4=C4C=C(S[C@]4(C)[C@@]3(C)S2)C(=O)[C@H]2CCCN2C(=O)[C@H](CC(C)C)NC(=O)[C@H](CCCN)NC(=O)[C@H]([C@@H](C)CC)NC(=O)[C@@H]2CCCN2C(=O)[C@H]2CCCN2C(=O)[C@H](CC(C)C)NC(=O)[C@H](CCCN)NC1=O
Response line: 64

Prompt line: Which IC50 is reported for this compound? CC(C)C[C@@H]1NC(=O)[C@H](CCCCN)NC(=O)[C@H](C(C)C)NC(=O)[C@@H]2CCCN2C(=O)[C@@H](Cc2ccccc2)NC(=O)[C@H](CC(C)C)NC(=O)[C@H](CCCCN)NC(=O)[C@H](C(C)C)NC(=O)[C@H](CCCCN)NC(=O)C2=CC3=C4CCCC4=C4C=C(S[C@]4(C)[C@@]3(C)S2)C(=O)[C@H]2CCCN2C(=O)[C@H](CCCCN)NC1=O
Response line: 82
